# subjectOfTest: T1, 4H568-bN
# T1 chain: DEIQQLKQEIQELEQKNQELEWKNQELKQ
# protocolSummary: two-hybrid library CCNG1;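 further: natural log of median RNA to DNA barcode read ratio; higher means stronger binding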
Measured interaction score by item
recordedEndpoint: interaction score

- DENQQLKQKIQELEQKNQELEWKIQELEQ [4H1845-bN]: -1.33
- DEIQQLEQKNQELKQEIQELEWKIQELKQ [4H454-bN]: 0.196
- DKNQQLKQENQELKQEIQELEWKIQELKQ [4H3782-bN]: -0.456
- DKNQQLEQEIQELEQKIQELEWKNQELKQ [4H3112-bN]: 0.078
- DEIQQLEQKIQELKQENQELEWEIQELKQ [4H338-bN]: 0.409
- DKIQQLKQEIQELKQKIQELKWENQELEQ [4H2667-bN]: -0.122
- DKIQQLKQENQELEQKIQELKWEIQELEQ [4H2729-bN]: -1.47
- DENQQLEQENQELEQKIQELKWEIQELEQ [4H1193-bN]: -0.982
- DENQQLEQKIQELEQKIQELKWKNQELKQ [4H1328-bN]: -0.31

Source: paper PMC10397247
